experiment: Solubility of Compound 1 polymorphs in aqueous systems, buffer solutions and biorelevant media; format: physicochemical; details: pH 8.6, thermodynamic from solid; Unbuffered water, pH at 48 Hours 8.6; average of three runs
endpoint.name: solubility at 48 h (µg/mL)

[
  {
    "compound": "CNc1cc(Nc2cccn(-c3ccccn3)c2=O)nc2c(C(=O)N[C@@H]3CC[C@H]3OC)cnn12 [Compound 1]",
    "result.number": 5.5
  }
]

----------
test: Solubility of Compound 1 polymorphs in aqueous systems, buffer solutions and biorelevant media; format: physicochemical; details: 50 mM Acetate buffer, pH 5.0; Form C Lot: a, Form A Lot: b
endpoint.name: Aqueous Solubility (mg/mL)

[
  {
    "molecule": "CNc1cc(Nc2cccn(-c3ccccn3)c2=O)nc2c(C(=O)N[C@@H]3CC[C@H]3OC)cnn12 [Form C]",
    "endpoint.name": "Aqueous Solubility",
    "result.number": 0.013
  }
]

----------
assay: Solubility of Compound 1 polymorphs in aqueous systems, buffer solutions and biorelevant media; format: physicochemical; conditions: thermodynamic from solid; FeSSIF, pH 5.0
endpoint.name: solubility

[
  {
    "molecule": "CNc1cc(Nc2cccn(-c3ccccn3)c2=O)nc2c(C(=O)N[C@@H]3CC[C@H]3OC)cnn12 [Form C]",
    "result": "41 µg/mL"
  }
]

----------
assay: Solubility of Compound 1 polymorphs in aqueous systems, buffer solutions and biorelevant media; assay type: physicochemical; conditions: simulated gastric fluid, thermodynamic from solid; Initial Buffer pH 1.21, pH at 48 Hours 1.19; average of two runs

[
  {
    "molecule": "CNc1cc(Nc2cccn(-c3ccccn3)c2=O)nc2c(C(=O)N[C@@H]3CC[C@H]3OC)cnn12 [Compound 1]",
    "solubility at 48 h (µg/mL)": 58.1
  }
]

----------
experiment: pKa, dissociation constant and pH of saturated aqueous solution; assay type: physicochemical; details: read-out: pKa of the protonated form

[
  {
    "compound": "CNc1cc(Nc2cccn(-c3ccccn3)c2=O)nc2c(C(=O)N[C@@H]3CC[C@H]3OC)cnn12 [Compound 1]",
    "pKa": 1.94
  }
]

----------
test: Solubility of Compound 1 polymorphs in aqueous systems, buffer solutions and biorelevant media; format: physicochemical; conditions: aqueous buffer, thermodynamic from solid; Initial Buffer pH 6.81, pH at 48 Hours 6.75; average of two runs
endpoint.name: solubility at 48 h

[
  {
    "molecule": "CNc1cc(Nc2cccn(-c3ccccn3)c2=O)nc2c(C(=O)N[C@@H]3CC[C@H]3OC)cnn12 [Compound 1]",
    "endpoint.name": "solubility at 48 h",
    "result": "4.1 µg/mL"
  }
]

----------
experiment: Solubility of Compound 1 polymorphs in aqueous systems, buffer solutions and biorelevant media; assay type: physicochemical; settings: SGF, pH 1.2 (0.1% Triton X100); Form C Lot: a, Form A Lot: b
endpoint.name: Aqueous Solubility

[
  {
    "compound": "CNc1cc(Nc2cccn(-c3ccccn3)c2=O)nc2c(C(=O)N[C@@H]3CC[C@H]3OC)cnn12 [Form C]",
    "result": "35 µg/mL"
  }
]
